molecular target: human kinase Mps-1 (Homo sapiens, UniProt P33981); construct: N-terminally GST-tagged human full length recombinant Mps-1 kinase; GST (N); experiment: Mps-1 kinase assay (TR-FRET); settings: N-terminally GST-tagged human full length recombinant Mps-1; 10 μM ATP; 1 μM peptide substrate; 60 min at 22° C.
observable: IC50

Asked: Form entry - test system: human kinase Mps-1 (Homo sapiens, UniProt P33981); read-out: IC50; compound: Cc1cc(-c2cnc3c(NCCC(F)(F)F)cc(Oc4ccccc4)cn23)ccc1C(=O)NC1(C#N)CC1 [Example 57]
Given back: 12.6 nM

New cases:
Asked: Form entry - test system: human kinase Mps-1 (Homo sapiens, UniProt P33981); read-out: IC50; compound: CNC(=O)c1ccc(-c2cnc3c(NCCC(F)(F)F)cc(-c4ccc(C(=O)NC5(CO)CC5)c(C)c4)cn23)cc1C [Example 155]
Given back: 21.1 nM

Asked: Form entry - test system: human kinase Mps-1 (Homo sapiens, UniProt P33981); read-out: IC50; compound: Cc1cc(-c2cnc3c(NCCC(F)(F)F)cc(Oc4cccc(OC(F)(F)F)c4)cn23)ccc1C(=O)NC1(C#N)CC1 [Example 75]
Given back: 157 nM

Asked: Form entry - test system: human kinase Mps-1 (Homo sapiens, UniProt P33981); read-out: IC50; compound: Cc1cc(-c2cnc3c(NCCC(F)(F)F)cc(-c4ccccc4O)cn23)ccc1C(=O)N[C@H]1C[C@@H]1F (relative stereo) [Example 135]
Given back: 8.4 nM

Asked: Form entry - test system: human kinase Mps-1 (Homo sapiens, UniProt P33981); read-out: IC50; compound: Cc1cc(-c2cnc3c(NCCC(F)(F)F)cc(Oc4cccc(OC(F)(F)F)c4)cn23)ccc1C(=O)NC1(C)CC1 [Example 76]
Given back: 105 nM

Asked: Form entry - test system: human kinase Mps-1 (Homo sapiens, UniProt P33981); read-out: IC50; compound: C#Cc1cc(NCCC(F)(F)F)c2ncc(-c3ccc(C(=O)NCC)c(C)c3)n2c1 [Example 15]
Given back: 55 nM

Asked: Form entry - test system: human kinase Mps-1 (Homo sapiens, UniProt P33981); read-out: IC50; compound: CNC(=O)c1ccc(-c2cnc3c(NCCC(F)(F)F)cc(Oc4ccc(O)c(F)c4)cn23)cc1C [Example 130]
Given back: 0.9 nM

Asked: Form entry - test system: human kinase Mps-1 (Homo sapiens, UniProt P33981); read-out: IC50; compound: Cc1cc(-c2cnc3c(NCCC(F)(F)F)cc(Sc4ccccc4O)cn23)ccc1C(=O)NC1CC1 [Example 3-6]
Given back: 0.4 nM

Asked: Form entry - test system: human kinase Mps-1 (Homo sapiens, UniProt P33981); read-out: IC50; compound: CCNC(=O)c1ccc(-c2cnc3c(NCCC(F)(F)F)cc(Oc4ccc(OC)c(F)c4)cn23)cc1C [Example 107]
Given back: 1.8 nM

Asked: Form entry - test system: human kinase Mps-1 (Homo sapiens, UniProt P33981); read-out: IC50; compound: Cc1cc(-c2cnc3c(NCCC(F)(F)F)cc(Oc4cccc(F)c4O)cn23)ccc1C(=O)NC1CC1 [Example 176]
Given back: 1.8 nM

====

target: human kinase Mps-1 (Homo sapiens); construct: N-terminally GST-tagged human full length recombinant Mps-1 kinase; GST (N); test: Mps-1 kinase assay (TR-FRET); conditions: N-terminally GST-tagged human full length recombinant Mps-1; 10 μM ATP; 1 μM peptide substrate; 60 min at 22° C.
Reported IC50 values are given for each entry in this list.
The answer is to be given in nM; state only the numeric part.

Record excerpt, results attached:
Asked: Returns the measured IC50 for the input compound. Input: C/C=C/c1cc(NCCC(F)(F)F)c2ncc(-c3ccc(C(=O)N[C@H]4C[C@@H]4F)c(C)c3)n2c1 (relative stereo) [Example 116]
Given back: 19.9

Asked: Returns the measured IC50 for the input compound. Input: Cc1cc(-c2cnc3c(NCCC(F)(F)F)cc(Oc4cccc(Cl)c4)cn23)ccc1C(=O)NC1(C#N)CC1 [Example 37]
Given back: 23

Asked: Returns the measured IC50 for the input compound. Input: CCNC(=O)c1ccc(-c2cnc3c(NCCC(F)(F)F)cc(-c4ccccc4OC)cn23)cc1C [Example 82]
Given back: 21.3

Please look at the following compound next.
Asked: Returns the measured IC50 for the input compound. Input: Cc1cc(-c2cnc3c(NCC(F)F)cc(Oc4cc(F)ccc4F)cn23)ccc1C(=O)NC1CC1 [Example 165]
Given back: 48.3

====

Biological target: human kinase Mps-1 (Homo sapiens, UniProt P33981)
Construct: N-terminally GST-tagged human full length recombinant Mps-1 kinase; GST (N)
Sequence (P33981 1-857): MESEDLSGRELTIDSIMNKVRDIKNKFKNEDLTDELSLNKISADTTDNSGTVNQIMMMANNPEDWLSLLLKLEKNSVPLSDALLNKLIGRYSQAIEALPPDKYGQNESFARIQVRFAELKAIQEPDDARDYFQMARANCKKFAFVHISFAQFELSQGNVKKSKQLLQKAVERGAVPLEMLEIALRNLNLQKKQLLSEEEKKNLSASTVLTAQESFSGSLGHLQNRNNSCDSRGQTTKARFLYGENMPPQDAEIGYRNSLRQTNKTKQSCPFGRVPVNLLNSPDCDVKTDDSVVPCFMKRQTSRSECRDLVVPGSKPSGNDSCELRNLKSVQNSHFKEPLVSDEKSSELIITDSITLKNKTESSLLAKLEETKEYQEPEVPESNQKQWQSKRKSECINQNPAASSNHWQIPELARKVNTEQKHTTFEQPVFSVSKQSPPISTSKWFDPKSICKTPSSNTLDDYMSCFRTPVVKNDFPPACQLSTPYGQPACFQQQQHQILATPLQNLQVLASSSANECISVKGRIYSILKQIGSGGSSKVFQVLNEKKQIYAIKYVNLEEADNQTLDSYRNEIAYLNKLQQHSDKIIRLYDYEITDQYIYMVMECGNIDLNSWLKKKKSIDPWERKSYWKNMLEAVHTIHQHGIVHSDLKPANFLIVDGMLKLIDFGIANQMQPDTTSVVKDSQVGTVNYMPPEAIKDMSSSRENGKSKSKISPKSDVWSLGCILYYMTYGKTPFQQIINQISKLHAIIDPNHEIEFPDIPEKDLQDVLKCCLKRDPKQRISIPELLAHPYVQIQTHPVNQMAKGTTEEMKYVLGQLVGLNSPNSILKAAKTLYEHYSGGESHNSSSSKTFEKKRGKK
Test: Mps-1 kinase assay (TR-FRET)
Conditions: N-terminally GST-tagged human full length recombinant Mps-1; 10 μM ATP; 1 μM peptide substrate; 60 min at 22° C.
pIC50: −log10 of the molar value.
Would you please tag the item true (1) when its pIC50 is 8 or above, and false (0) when it is below?

Examples from the recorded data:
Asked: API: above_or_equal(metric=pIC50, cutoff=8) for item CNC(=O)c1ccc(-c2cnc3c(NCCC(F)(F)F)cc(CCO)cn23)cc1C
Given back: false (0)

Asked: API: above_or_equal(metric=pIC50, cutoff=8) for item Cc1cc(-c2cnc3c(NCCC(F)(F)F)cc(-c4ccc(C(=O)N[C@H]5C[C@@H]5F)c(C)c4)cn23)ccc1C(=O)NC1CC1 (relative stereo)
Given back: true (1)

Asked: API: above_or_equal(metric=pIC50, cutoff=8) for item Cc1cc(-c2cnc3c(NCCC(F)(F)F)cc(C#CCO)cn23)ccc1C(=O)NC1(C)CC1
Given back: false (0)

New cases:
Asked: API: above_or_equal(metric=pIC50, cutoff=8) for item C=Cc1cc(NCCC(F)(F)F)c2ncc(-c3ccc(C(=O)N[C@H]4C[C@@H]4F)c(C)c3)n2c1 (relative stereo)
Given back: false (0)

Asked: API: above_or_equal(metric=pIC50, cutoff=8) for item CNC(=O)c1ccc(-c2cnc3c(NCCC(F)(F)F)cc(Oc4cccc(F)c4F)cn23)cc1C
Given back: true (1)

Asked: API: above_or_equal(metric=pIC50, cutoff=8) for item Cc1cc(-c2cnc3c(NCCC(F)(F)F)cc(-c4ccncc4)cn23)ccc1C(=O)NC1CC1
Given back: true (1)

Asked: API: above_or_equal(metric=pIC50, cutoff=8) for item CCNC(=O)c1ccc(-c2cnc3c(NCCC(F)(F)F)cc(CC)cn23)cc1C
Given back: false (0)

Asked: API: above_or_equal(metric=pIC50, cutoff=8) for item Cc1ccc(F)cc1Oc1cc(NCCC(F)(F)F)c2ncc(-c3ccc(C(=O)NC4(C#N)CCC4)c(C)c3)n2c1
Given back: false (0)

Asked: API: above_or_equal(metric=pIC50, cutoff=8) for item COc1ccc(Oc2cc(NCCC(F)(F)F)c3ncc(-c4ccc(C(=O)NC5CC5)c(C)c4)n3c2)c(F)c1
Given back: true (1)

Asked: API: above_or_equal(metric=pIC50, cutoff=8) for item C/C=C/c1cc(NCCC(F)(F)F)c2ncc(-c3ccc(C(=O)NC)c(C)c3)n2c1
Given back: false (0)

Asked: API: above_or_equal(metric=pIC50, cutoff=8) for item CCNC(=O)c1ccc(-c2cnc3c(NCCC(F)(F)F)cc(C#CCO)cn23)cc1C
Given back: false (0)

Asked: API: above_or_equal(metric=pIC50, cutoff=8) for item CCc1cc(NCCC(F)(F)F)c2ncc(-c3ccc(C(=O)NC)c(C)c3)n2c1
Given back: false (0)

Asked: API: above_or_equal(metric=pIC50, cutoff=8) for item Cc1cc(-c2cnc3c(NCCC(F)(F)F)cc(Oc4cccc(F)c4)cn23)ccc1C(=O)NC1CC1F (single isomer, unassigned) [Example 12 (A or ent.-A)]
Given back: true (1)

Asked: API: above_or_equal(metric=pIC50, cutoff=8) for item Cc1cc(-c2cnc3c(NCCC(F)(F)F)cc(S(C)(=O)=O)cn23)ccc1C(=O)NC1CC1
Given back: false (0)

Asked: API: above_or_equal(metric=pIC50, cutoff=8) for item Cc1cc(-c2cnc3c(NCCC(F)(F)F)cc(Oc4ccccc4)cn23)ccc1C(=O)NC1(C)CC1
Given back: true (1)

Asked: API: above_or_equal(metric=pIC50, cutoff=8) for item CCNC(=O)c1ccc(-c2cnc3c(NCCC(F)(F)F)cc(C(C)O)cn23)cc1C (racemic)
Given back: false (0)
